Tested on: AncSZ;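 further: 11-residue human phosphosite peptides and single-mutation variants displayed on the E. coli surface, counted by deep sequencing, each peptide's frequency after selection divided by its frequency in the unselected input library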;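 further: frequency after pTyr selection over input frequency; kinase dosed for 20-30% of maximal phosphorylation in three min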
Assay: phosphorylation enrichment, bacterial display (enrichment ratio); higher = better substrate or ligand; peptides without Tyr show the background
Please respond with reported phosphorylation enrichment for every item in the list.
Answer using only a numeral; do not append any unit.

Entry PLDGEYFTHQI [TP53_Y327_L330H] : reported phosphorylation enrichment = ?
4.62

Entry KELAKYFKLHH [AK7_Y390_N389K_YF] : reported phosphorylation enrichment = ?
0.596

Entry LFSGDYFRIQG [DDR2_Y740_YF] : reported phosphorylation enrichment = ?
4.61

Entry EKHGQYLIGHG [EPHB4_Y581_D576E] : reported phosphorylation enrichment = ?
0.618

Entry LRSELYFLIAR [PHIP_Y16] : reported phosphorylation enrichment = ?
2.02

Entry RSSGPYGGGGQ [HNRNPA1_Y341] : reported phosphorylation enrichment = ?
0.811

Entry CSPLLYRVIMS [OR8D4_Y132] : reported phosphorylation enrichment = ?
1.22

Entry QRPYVYYYSYL [PTEN_Y176_R173P] : reported phosphorylation enrichment = ?
2.26

Entry LDPDSYNVFEN [FOXC1_Y159_M161V] : reported phosphorylation enrichment = ?
2.1

Entry CEDGTYSPEIS [PTDSS1_Y424] : reported phosphorylation enrichment = ?
1.2

Entry EVTRLYGSVCD [TC2N_Y154_K151T] : reported phosphorylation enrichment = ?
1.18

Entry AQRKLYRNVML [ZNF569_Y33] : reported phosphorylation enrichment = ?
0.566

Entry VVQGIYGFHHH [UFSP2_Y285_Y290H_YF] : reported phosphorylation enrichment = ?
0.685

Entry SVMAEYGLFAA [VSX2_Y219_G223A_YF] : reported phosphorylation enrichment = ?
0.822
